# EC50 listing for each entry below
target: hPPAR alpha (Homo sapiens); construct: expressed in transfected cells; host or cells: CV-1 cells; assay: Transient transfection (transactivation) assay in CV-1 cells, GAL4-PPAR LBD chimera, SPAP reporter; type: cell-based; conditions: read-out: EC50 μM HPPARα
Sequence (Q07869 239-466 limits assumed): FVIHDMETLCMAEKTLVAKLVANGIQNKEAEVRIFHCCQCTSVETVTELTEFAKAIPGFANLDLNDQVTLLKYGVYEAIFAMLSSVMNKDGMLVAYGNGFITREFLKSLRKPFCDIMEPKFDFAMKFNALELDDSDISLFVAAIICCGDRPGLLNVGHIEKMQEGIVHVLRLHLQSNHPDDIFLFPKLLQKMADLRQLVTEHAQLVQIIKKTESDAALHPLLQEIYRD

# Cpd smiles, EC50
records = [
    ("Cc1cc(CNC(=O)c2cc(-c3ccc(CC(C)C)cc3)n(C)n2)cc(Cl)c1OC(C)(C)C(=O)O", "< 0.001 µM"),
    ("Cc1cc(CNC(=O)c2cc(-c3ccc(-c4ccncc4)cc3)n(C)n2)ccc1OC(C)(C)C(=O)O", "0.734 µM"),
    ("C=CCc1cc(CNC(=O)c2cc(-c3ccc(C(C)(C)C)cc3)nn2C)ccc1OC(C)(C)C(=O)O", "0.1 µM"),
    ("Cc1cc(CNC(=O)Cc2cc(-c3ccc(C(C)(C)C)cc3)nn2C)ccc1OC(C)(C)C(=O)O", "0.257 µM"),
]

Continue with the compound presented below.
Query: Return value of EC50 for input `Cc1cc(CNC(=O)c2cc(-c3cccc(N4CCCCC4)c3)n(C)n2)ccc1OC(C)(C)C(=O)O` , no commentary.
Result: 0.293 µM
